system: Caco-2 cell monolayer; test: Arginine absorption assay (transport across Caco-2 cell monolayer); assay type: cell-based, human; design: key: ↑: the arrows that point up represent the enhancing effect on the arginine transport; details: compound 1 μM
READOUT: * (regulatory effect on arginine transport)

CC(C)(O)C1CC[C@](C)(C2[C@@H](O)C[C@@]3(C)C4C[C@H](OC5OC(CO)C(O)C(O)C5O)C5C(C)(C)[C@@H](O)CCC56CC46CC[C@]23C)O1 (stereo partly drawn) [AA, cycloastragenol 6-O-β-D-gluco-pyranose]; ↑
CC(=O)O[C@@H]1[C@@H](O)[C@H](O[C@H]2CC[C@]34C[C@]35CC[C@]3(C)[C@@H]([C@@]6(C)CC[C@@H](C(C)(C)O)O6)[C@@H](O)C[C@@]3(C)[C@@H]5C[C@H](O[C@@H]3O[C@H](CO)[C@@H](O)[C@H](O)[C@H]3O)[C@H]4C2(C)C)OC[C@H]1O [IsoAS2, isoastragaloside II]; ↑
